The next entries give measured pKi for UniProt P00915.
Reminder that pKi means the negative base-10 logarithm of the concentration expressed in mol/L.

Use these answered entries as a reference point.
CCC(C)NC(=O)Nc1ccc(S(N)(=O)=O)cc1 (stereo not drawn) | 6.17
COC(=O)[C@H](Cc1ccccc1)NC(=O)Nc1ccc(S(N)(=O)=O)cc1 | 7.21

Record COC(=O)C(CC(C)C)NC(=O)Nc1cccc(S(N)(=O)=O)c1 (stereo not drawn) has UniProt P00915 pKi equal to 5.28

----------
# target entity: Carbonic anhydrase 1 (Homo sapiens, UniProt P00915)
# Sequence (P00915 whole entry): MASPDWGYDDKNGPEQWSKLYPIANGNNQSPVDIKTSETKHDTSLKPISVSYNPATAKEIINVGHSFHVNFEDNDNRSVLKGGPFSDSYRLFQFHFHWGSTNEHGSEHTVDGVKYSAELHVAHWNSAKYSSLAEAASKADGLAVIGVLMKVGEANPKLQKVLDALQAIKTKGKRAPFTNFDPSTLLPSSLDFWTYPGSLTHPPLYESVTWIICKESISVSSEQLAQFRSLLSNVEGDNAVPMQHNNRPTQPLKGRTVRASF
readout kind: Ki (µM)
Number only, in µM; omit the unit.

CCN(CC)C(=O)Nc1cccc(S(N)(=O)=O)c1 | 2.88
NS(=O)(=O)c1ccc(NC(=O)NCC(=O)NCC(=O)O)cc1 | 7.57
COC(=O)C(CCSC)NC(=O)Nc1cccc(S(N)(=O)=O)c1 (stereo unspecified) | 1.73
COC(=O)CNC(=O)Nc1cccc(S(N)(=O)=O)c1 | 6.07
COC(=O)CCC(NC(=O)Nc1ccc(S(N)(=O)=O)cc1)C(=O)OC (stereo unspecified) | 0.062

Attention now shifts to the item below.
Measured Ki for this entry COC(=O)CNC(=O)CNC(=O)Nc1cccc(S(N)(=O)=O)c1 on Carbonic anhydrase 1 (Homo sapiens, UniProt P00915): 7.19
